Values compiled from patent US9708270B2.

Target: UniProt:Q5NUL3
Sequence (Q5NUL3 whole entry): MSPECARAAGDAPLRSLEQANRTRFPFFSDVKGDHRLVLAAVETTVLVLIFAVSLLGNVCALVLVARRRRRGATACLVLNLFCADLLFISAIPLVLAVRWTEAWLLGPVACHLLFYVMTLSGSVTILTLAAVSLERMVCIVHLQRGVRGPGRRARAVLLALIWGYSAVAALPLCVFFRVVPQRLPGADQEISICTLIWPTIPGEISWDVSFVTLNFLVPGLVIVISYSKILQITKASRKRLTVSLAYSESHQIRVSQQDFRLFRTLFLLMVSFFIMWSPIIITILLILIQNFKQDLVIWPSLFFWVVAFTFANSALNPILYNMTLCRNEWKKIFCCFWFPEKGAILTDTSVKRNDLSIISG
Experiment: FLIPR assay: intracellular calcium in CHO cells expressing human GPR120
Type: cell-based
Conditions: FLIPR calcium assay, CHO cells expressing human GPR120, agonist action
quantityMeasured: EC50 (nM)

Observe how each entry below is paired with its result.
>>> measured("O=C(O)CC1CCC2(CCN(c3cc(OC(F)(F)F)ccc3Cl)CC2)OC1 (single isomer, unassigned) [Example 91B]")
1020
>>> measured("COc1cc(C)cc(N2CCC3(CCC(CC(=O)O)CC3)CC2)c1")
3060
>>> measured("O=C(O)CC1CCC2(CCN(c3cc(OC(F)(F)F)ccc3Cl)CC2)OC1 (single isomer, unassigned) [Example 91A]")
636
>>> measured("O=C(O)CC1CCC2(CC1)CCN(c1cc(C(F)F)cc(C(F)F)n1)CC2")
2990
>>> measured("O=C(O)CC1CCC2(CCN(c3cc(OC(F)(F)F)ccc3Cl)CC2)OC1 (centres unmarked) [Example 97]")
1290
>>> measured("O=C(O)CCC1CCC2(CC1)CCN(c1cc(OC3CCC3)ccc1Cl)CC2")
1350

(1) O=C(O)CC1CCC2(CCN(c3cccc(OC(F)(F)F)c3)CC2)OC1 (centres unmarked)
(2) CSc1cc(N2CCC3(CCC(CC(=O)O)CC3)CC2)cc(C(F)(F)F)c1
Pick one: 1 or 2 . Which has the bigger EC50 number? Answer with the label corresponding to your selection. 1
